System: COLO 205
Assay: NCI tumour cell line growth inhibition, 48 h
Calls of active or inactive are those of the source. Cut-off read from the data, not from the text of the source: active = GI50 up to about 1.1 µM and inactive = higher.
Lab note: assign the record to one of 1 (active), -1 (inactive)

Example cases with answers are listed next.
INSERT INTO assay_data (compound, qualitative_label) VALUES
  ('Cc1ccc(C)c(COCCOCn2ccc(N)nc2=O)c1', -1),
  ('c1ccc(Cc2cc(-c3ccccc3)[nH]n2)cc1', -1),
  ('COC(=O)CNC(=O)CCC(C)[C@H]1CCC2C3C(C[C@H](OC(C)=O)[C@@]21C)[C@@]1(C)CCC2(C[C@H]1C[C@H]3OC(C)=O)OOC1(CC[C@]3(C)C4C[C@H](OC(C)=O)[C@@]5(C)C(CC[C@@H]5C(C)CCC(=O)NCC(=O)OC)C4[C@H](OC(C)=O)C[C@@H]3C1)OO2 (some centres not stated)', 1),
  ('CC(C1CCCC1=O)C1CCCC1=O (configuration not stated)', -1),
  ('C=CCP(=O)(CC=C)C(Cl)Cl', -1),
  ('CCOC(=O)NC(Nc1ccc(F)cc1)(C(=O)OCC)C(F)(F)F (configuration not stated)', -1),
  ('COc1cccc2c1[C@H]1OC(=O)NC1CCCCC2 (some centres not stated)', -1),
  ('Cc1ccc(C(=O)N/N=C(\N=N\c2ccccc2C(=O)O)c2ccc(N(C)C)cc2)cc1', -1),
  ('CSc1nc(NC2OCC(OC(C)=O)C(OC(C)=O)C2OC(C)=O)c2c(OC(C)=O)c(C)c(=O)oc2n1 (configuration not stated)', -1),
  ('O=C(c1ccccc1)N(C(=O)c1ccccc1)c1nc(SCc2ccccc2)ns1', -1);

Qu. Short answer needed: outcome of this test for `Nc1ncnc2c1ncn2[C@@H]1O[C@H](COP(=O)(O)OP(=O)(O)OC[C@H]2O[C@@H](OCCCO)[C@H](O)[C@@H]2O)[C@@H](O)[C@H]1O` ?
Ans. -1

Qu. Short answer needed: outcome of this test for `O=C1N/C(=N/N=C/c2c[nH]c3ccccc23)N/C1=C\c1c[nH]c2ccccc12` ?
Ans. -1

Qu. Short answer needed: outcome of this test for `Cc1ccc(-c2c(C#N)c(-c3ccc(N(C)C)cc3)c(C#N)c(=O)n2NS(=O)(=O)c2ccccc2)cc1` ?
Ans. -1

Qu. Short answer needed: outcome of this test for `CN(C)c1ccc(/C=N/c2ccc(-c3nc4ccccc4s3)cc2)cc1` ?
Ans. -1

Qu. Short answer needed: outcome of this test for `Oc1c([Si](c2ccccc2)(c2ccccc2)c2ccccc2)cc2ccccc2c1-c1c(O)c([Si](c2ccccc2)(c2ccccc2)c2ccccc2)cc2ccccc12` ?
Ans. -1

Qu. Short answer needed: outcome of this test for CC1(C)CCCCCCCCCC(C)(CCCO)C1=O (configuration not stated) ?
Ans. -1

Qu. Short answer needed: outcome of this test for `N=C(N)NS(=O)(=O)c1ccc(NCc2c3ccccc3[n+]([O-])c3ccccc23)cc1` ?
Ans. -1

---

System: EKVX
Assay: NCI tumour cell line growth inhibition, 48 h
Activity calls are given as the source filed them. Rule as the data show it: active = GI50 up to about 1.1 µM and inactive = higher. Peptide text beside a SMILES is read from it. * marks the point of attachment. Cbz = O=C(OCc1ccccc1)*; CH2Cl = ClC*
Lab note: assign the record to one of 1 for active, -1 for inactive

Qu. Short answer needed: outcome of this test for CC(C)CC(NC(=O)OCc1ccccc1)C(=O)NC(Cc1ccccc1)C(=O)CCl (stereo not drawn) (Cbz-Leu-Phe-CH2Cl; configuration not given here) ?
Ans. -1

Qu. Short answer needed: outcome of this test for `Cc1ncc(C/N=C/c2ccc(Cl)cc2)c(N)n1` ?
Ans. -1

Qu. Short answer needed: outcome of this test for `O=C1NCC2(CCN(Cc3ccccc3)CC2)N1` ?
Ans. -1

Qu. Short answer needed: outcome of this test for Cc1ccccc1OC(C)C(=O)NN1C(=O)CSC1c1ccccc1 (stereo not given) ?
Ans. -1

Qu. Short answer needed: outcome of this test for `CCCCOCCOC1=CC(=O)c2c(O)ccc(O)c2C1=O` ?
Ans. -1

Qu. Short answer needed: outcome of this test for `Cc1nc2c(nc1C)-c1[nH]c3c(c1C(=O)C2=O)CCCC3=O` ?
Ans. -1

Qu. Short answer needed: outcome of this test for `c1ccc(Cc2cc(-c3ccccc3)[nH]n2)cc1` ?
Ans. -1

Qu. Short answer needed: outcome of this test for `Cc1cc2cc3cc(C)c(N)cc3nc2cc1N` ?
Ans. 1

Qu. Short answer needed: outcome of this test for COc1cc2c(cc1OCCCC(=O)Nc1cc(C(=O)Nc3cc(C(=O)NCCCN(C)C)n(C)n3)n(C)n1)N=CC1CCCN1C2=O (stereo not given) ?
Ans. -1

Qu. Short answer needed: outcome of this test for `O=C(CCN(CCO)CCO)Nc1ccc2c(c1)C(=O)c1ccc(NC(=O)CCN(CCO)CCO)cc1C2=O` ?
Ans. -1

Qu. Short answer needed: outcome of this test for `CN(C)CCNC(=O)c1cccc2ccc(-c3ccc(-c4ccccc4)cc3)nc12` ?
Ans. -1

Qu. Short answer needed: outcome of this test for `CN(C)CCNC(=O)c1cccc2c(Nc3ccc(S(=O)(=O)N=C(N)N)cc3)c3ccccc3nc12` ?
Ans. -1

Qu. Short answer needed: outcome of this test for CC1=NN=C(N)N/C1=C\C(Sc1ccc(Cl)cc1)c1ccc([N+](=O)[O-])cc1 (stereo not given) ?
Ans. -1

Qu. Short answer needed: outcome of this test for COc1ccc(C(=O)C(C(=O)CCC(=O)Nc2ccc(Cl)c(Cl)c2)c2ccc(OC)cc2)cc1 (stereo not given) ?
Ans. -1

Qu. Short answer needed: outcome of this test for `C=Cc1cncc(C#N)c1CCc1c(C#N)cncc1C=C` ?
Ans. -1

Qu. Short answer needed: outcome of this test for O=C1C=CC=CC2CC=C[C@@H](O)C12 (stereo not given in full) ?
Ans. -1

Qu. Short answer needed: outcome of this test for `C=C(C)[C@@H]1CCC2=C[C@H](C/C(C)=C\C3=CC(C)=C(O3)[C@H]1O)OC2=O` ?
Ans. -1

Qu. Short answer needed: outcome of this test for `CCSc1c2ccccc2nc2c(OC)ccc(OC)c12` ?
Ans. -1

Qu. Short answer needed: outcome of this test for `COc1cc(/C=C/C=C2\CC/C(=C\C=C\c3ccc(O)c(OC)c3)C2=O)ccc1O` ?
Ans. -1

Qu. Short answer needed: outcome of this test for `CN(CCCNC(=O)c1cn(C)c2c1Cc1ccccc1-2)CCCNC(=O)c1cn(C)c2c1Cc1ccccc1-2` ?
Ans. -1

---

Test system: RXF 393
Experiment: NCI tumour cell line growth inhibition, 48 h
Calls of active or inactive are those of the source. No stated cut-off is given here; in the data, active = GI50 up to about 1.1 µM and inactive = higher.
property label: GI50

INSERT INTO results (compound, property_label, result) VALUES
  ('Cc1c2cnccc2c(C)c2c1c1ccccc1n2CCCCCCNCc1ccccc1', 'GI50', '2.04 µM (inactive)'),
  ('COc1cccc2c1[C@H]1OC(=O)NC1CCCCC2 (stereo not given in full)', 'GI50', '> 100 µM (inactive)'),
  ('COc1cc(C2c3cc4c(cc3OC(NNS(=O)(=O)c3ccc(C)cc3)C2C)OCO4)cc(OC)c1O (stereo not given)', 'GI50', '10.5 µM (inactive)'),
  ('Cc1c(C(=O)Nc2ccc(Cl)cc2)nc(N)nc1-c1cccc(Cl)c1', 'GI50', '39.5 µM (inactive)');

Please find the next compound below.
# GI50 (compound: `CN(C)CCNC(=O)c1cccc2c(Nc3ccc(S(=O)(=O)N=C(N)N)cc3)c3ccccc3nc12` ) is 28 µM (inactive)

---

Tested on: UO-31
Test: NCI tumour cell line growth inhibition, 48 h
The source made the active and inactive calls. Cut-off read from the data, not from the text of the source: active = GI50 up to about 1.1 µM and inactive = higher.
Lab note: assign the record to one of active, inactive

Example cases with answers are listed next.
INSERT INTO measurements (compound, qualitative_label) VALUES
  ('Cc1nc2c(N)ncnc2o1', 'inactive'),
  ('CC1=Nn2c(nc3sc4c(c3c2=O)CCCC4)SC1', 'inactive'),
  ('O=[N+]([O-])C(=C(c1ccccc1)c1ccccc1)[N+](=O)[O-]', 'inactive'),
  ('O=C(Nc1c(O)[nH]c(=S)[nH]c1=O)c1ccccc1', 'inactive'),
  ('Nc1ccc2c(c1)C1Oc3ccccc3CC1CO2 (stereo unspecified)', 'inactive'),
  ('COc1nc2ccc(CNc3ccc(C(=O)NC(CCC(=O)O)C(=O)O)cc3)cc2nc1OC (stereo unspecified)', 'inactive'),
  ('O=[N+]([O-])c1ccc(C(Nc2ccccc2)P(c2ccccc2)c2ccccc2)cc1 (stereo unspecified)', 'inactive'),
  ('CC(C)NC(=O)O/N=C1\CCC2[C@@H]3CC=C4C[C@@H](OC(=O)NC(C)C)CC[C@]4(C)C3CC[C@]12C (stereo partly specified)', 'active'),
  ('CC1=NN=C(N)N/C1=C\C(Sc1ccc(Cl)cc1)c1ccc([N+](=O)[O-])cc1 (stereo unspecified)', 'inactive'),
  ('CCc1cccc(C(C)CC)c1NC(=O)CC1C(=O)Nc2ccccc2[S+]1[O-] (stereo unspecified)', 'inactive');

Qu. Short answer needed: outcome of this test for `Nc1cccc(OCc2nc(N)nc(N)c2-c2ccc(Cl)cc2)c1` ?
Ans. inactive
